Exercise: state measured growth inhibition for each of the compounds provided.
assay-protocol: NCI Yeast Anticancer Drug Screen. Data for the mlh1 rad18 strain (AID 175)
setup-conditions: S. cerevisiae mlh1 rad18 strain growth inhibition; at 50.0 µM; stronger effect = higher value
About 79,000 compounds went through this panel and 15% of them were active in at least one assay; those are over-represented in the sample as a whole.
# output: bare number, implied unit %

QUERY: Suppose we examine the compound COc1ccc(NC(=O)c2cc3ccccc3cc2OC(=O)NC(C)(C)C)cc1 ; what growth inhibition value has been reported?
RESULT: -32.8

QUERY: Suppose we examine the compound C(=N[C@H]1CCCC[C@H]1N=Cc1ccc[nH]1)c1ccc[nH]1 ; what growth inhibition value has been reported?
RESULT: 20.7

QUERY: Suppose we examine the compound CCCNC(=S)N/N=C\C(C)=N\Nc1ccc(Cl)cc1 ; what growth inhibition value has been reported?
RESULT: 17.2

QUERY: Suppose we examine the compound COc1ccc(-c2nnc(N)o2)cc1OC ; what growth inhibition value has been reported?
RESULT: -24.9

QUERY: Suppose we examine the compound NC(=S)c1ccc(N=Cc2ccccn2)cc1 ; what growth inhibition value has been reported?
RESULT: -8

QUERY: Suppose we examine the compound O=C(c1ccccc1CO)N1CCCCC1 ; what growth inhibition value has been reported?
RESULT: -20.4

====

assay-protocol: NCI Yeast Anticancer Drug Screen. Data for the rad50 strain (AID 155);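 note: 0% = growth of vehicle-only cultures of the same strain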
setup-conditions: S. cerevisiae rad50 strain growth inhibition; at 50.0 µM; stronger effect = higher value
About 79,000 compounds went through this panel and 15% of them were active in at least one assay; those are over-represented in the sample as a whole. Where a SMILES comes first, the peptide text is derived from it. [ ]: non-standard residue; d: D form. The star is where a group is joined. ξ: configuration not given here. Cbz = O=C(OCc1ccccc1)*; ξM = CSCCC(N)C(=O)O
value-type: growth inhibition (%)
# output: bare number, implied unit %

QUERY: Suppose we examine the compound CCOC(=O)c1cc2cc(Br)ccc2[nH]1 ; what growth inhibition value has been reported?
RESULT: 2

QUERY: Suppose we examine the compound CCCCC/C=C1\CCC(CN2CCOCC2)C1=O (stereo unspecified) ; what growth inhibition value has been reported?
RESULT: 89.5

QUERY: Suppose we examine the compound COc1ccc(C(c2cc3c(cc2O)OCO3)N2CCCCC2)c(OC)c1 (stereo unspecified) ; what growth inhibition value has been reported?
RESULT: -31.2

QUERY: Suppose we examine the compound C=CCOC(=O)NC(CCC(=O)OC)C(=O)O (stereo unspecified) ; what growth inhibition value has been reported?
RESULT: -0.5

QUERY: Suppose we examine the compound Cc1cc(=O)[nH]c(N/N=C/c2ccco2)n1 ; what growth inhibition value has been reported?
RESULT: -20.8

QUERY: Suppose we examine the compound C/C(=N\N=Nc1ccc(N(C)C)cc1)c1ccccc1 ; what growth inhibition value has been reported?
RESULT: 1.6

QUERY: Suppose we examine the compound CCOC(=O)CCCN(c1sc(C)c(-c2ccccc2)c1C(=O)OCC)S(=O)(=O)c1ccc(C)cc1 ; what growth inhibition value has been reported?
RESULT: -16.6

QUERY: Suppose we examine the compound CC(Br)C(=O)n1c2ccccc2c2ccccc21 (stereo unspecified) ; what growth inhibition value has been reported?
RESULT: 21.6

QUERY: Suppose we examine the compound O=C(CI)Nc1ccc(Cl)c(Cl)c1 ; what growth inhibition value has been reported?
RESULT: 99.7

QUERY: Suppose we examine the compound COCCCC(O)CNC(C)C (stereo unspecified) ; what growth inhibition value has been reported?
RESULT: -11.2

QUERY: Suppose we examine the compound O=C(NC(Cc1ccc(O)cc1)C(=O)O)C(=O)c1c[nH]c2ccc([N+](=O)[O-])cc12 (stereo unspecified) ; what growth inhibition value has been reported?
RESULT: 3.45

QUERY: Suppose we examine the compound O=C1CSC(=S)N1c1ccccc1 ; what growth inhibition value has been reported?
RESULT: 2.2

QUERY: Suppose we examine the compound COc1cc(C2=N/C(=C\C=C\c3ccccc3)C(=O)O2)cc(OC)c1OC ; what growth inhibition value has been reported?
RESULT: 16.8

QUERY: Suppose we examine the compound O=c1[nH]c(=O)n(C2OC(CO)C(O)C2O)cc1OCCCc1ccccc1 (stereo unspecified) ; what growth inhibition value has been reported?
RESULT: -23.1

QUERY: Suppose we examine the compound CC(C)(CN1C(=O)C(Cl)=C(Cl)C1=O)CN1C(=O)C(Cl)=C(Cl)C1=O ; what growth inhibition value has been reported?
RESULT: 1.7

QUERY: Suppose we examine the compound NC(CC1C=CC=CC1)C(=O)O (stereo unspecified) ; what growth inhibition value has been reported?
RESULT: 0.6

QUERY: Suppose we examine the compound CN(C)CCSC(CO)c1ccccc1 (stereo unspecified) ; what growth inhibition value has been reported?
RESULT: -12.7

QUERY: Suppose we examine the compound Nc1nc(CCC(=O)Nc2cccc(C(F)(F)F)c2)cc(-c2cccc3ccccc23)n1 ; what growth inhibition value has been reported?
RESULT: -15.2

QUERY: Suppose we examine the compound CCOC(=O)C1=C(C)NC(=O)NC1c1ccc(OC)cc1OC (stereo unspecified) ; what growth inhibition value has been reported?
RESULT: -2.15

QUERY: Suppose we examine the compound CN(C)CCNC1c2ccccc2-c2ccccc21 ; what growth inhibition value has been reported?
RESULT: -15.1

QUERY: Suppose we examine the compound C=CCN(CC=C)C(=O)C(=C)C ; what growth inhibition value has been reported?
RESULT: 3.3

QUERY: Suppose we examine the compound Cc1cc(Cl)cc(CN(C)Cn2c(=O)cc[nH]c2=O)c1O ; what growth inhibition value has been reported?
RESULT: 6.45

QUERY: Suppose we examine the compound O=C(O)c1cccc(CO)c1O ; what growth inhibition value has been reported?
RESULT: 3.25

QUERY: Suppose we examine the compound COc1cc(/C=C/c2ccc(/C=C/c3cc(OC)c(OC)c(OC)c3)cc2)cc(OC)c1OC ; what growth inhibition value has been reported?
RESULT: 11.2

QUERY: Suppose we examine the compound CC1(C)OC2C3COc4nc5c(N)ncnc5n4C(O3)C2O1 (stereo unspecified) ; what growth inhibition value has been reported?
RESULT: -6

QUERY: Suppose we examine the compound O=C(OCc1ccco1)c1ccc([N+](=O)[O-])cc1 ; what growth inhibition value has been reported?
RESULT: -5.15

QUERY: Suppose we examine the compound ClC/C=C/COC1CCCCO1 (stereo unspecified) ; what growth inhibition value has been reported?
RESULT: 6.8

QUERY: Suppose we examine the compound CCC1N=C(N)N=C(N)N1c1ccc(Cl)c(Cl)c1 (stereo unspecified) ; what growth inhibition value has been reported?
RESULT: 16.2

QUERY: Suppose we examine the compound Cc1cc(C)c2[nH]c(=O)c(Br)c(C)c2c1 ; what growth inhibition value has been reported?
RESULT: 29.8

QUERY: Suppose we examine the compound CCOC(=O)C(C)NC(=O)C(C)NC(=O)C(C)NC(=O)C(C)NC(=O)C(C)NC(=O)C(C)NC(=O)C(C)NC(=O)OCc1ccccc1 (stereo unspecified) (Cbz-AAAAAAA-OEt; configuration not given here) ; what growth inhibition value has been reported?
RESULT: -16.2

QUERY: Suppose we examine the compound COC1/C=C\OC2(C)Oc3c(C)c(O)c4c(O)c(c5[nH]cnc5c4c3C2=O)NC(=O)/C(C)=C\C=C\C(C)C(O)C(C)C(O)C(C)C(OC(C)=O)C1C (stereo unspecified) ; what growth inhibition value has been reported?
RESULT: 12.1

QUERY: Suppose we examine the compound CSC(c1ccc(Oc2ccccc2)cc1)=[N+]1CCCCC1 ; what growth inhibition value has been reported?
RESULT: 47.2

QUERY: Suppose we examine the compound COc1nc(NC2OCC(OC(C)=O)C(OC(C)=O)C2OC(C)=O)c(-c2csc(N)n2)c(=O)n1C (stereo unspecified) ; what growth inhibition value has been reported?
RESULT: -1.9

QUERY: Suppose we examine the compound CC(C)(C)c1cc(C(C)(C)C)c(P(C(O[Si](C)(C)C)=C(c2ccccc2)c2ccccc2)C(O[Si](C)(C)C)=C(c2ccccc2)c2ccccc2)c(C(C)(C)C)c1 ; what growth inhibition value has been reported?
RESULT: -14.7

QUERY: Suppose we examine the compound CCCCOC(=O)C(C)OC(=O)/C=C\C(=O)OC(C)C(=O)OCCCC (stereo unspecified) ; what growth inhibition value has been reported?
RESULT: 7.5

QUERY: Suppose we examine the compound CC1CCCCN1Cc1ccccc1COC(=O)c1ccc([N+](=O)[O-])cc1 (stereo unspecified) ; what growth inhibition value has been reported?
RESULT: 10.6

QUERY: Suppose we examine the compound Clc1nncc(SCc2ccccc2)c1SCc1ccccc1 ; what growth inhibition value has been reported?
RESULT: 17.2

QUERY: Suppose we examine the compound COc1ccc2c(c1O)-c1c(OC)c(OC)cc3c1[C@H](C2)[N+](C)(C)CC3 ; what growth inhibition value has been reported?
RESULT: -9

QUERY: Suppose we examine the compound Nc1cc(=O)[nH]c(NCCCC(N)C(=O)O)n1 (stereo unspecified) ; what growth inhibition value has been reported?
RESULT: 5.95

QUERY: Suppose we examine the compound OCc1nnn2c1CCC2 ; what growth inhibition value has been reported?
RESULT: 4.95

QUERY: Suppose we examine the compound COc1c(C)c(OCC=C(C)C)cc(CO)c1CO ; what growth inhibition value has been reported?
RESULT: 11.8

QUERY: Suppose we examine the compound CCNCC(=O)Nc1ccc(C(=O)OC)cc1 ; what growth inhibition value has been reported?
RESULT: -8

QUERY: Suppose we examine the compound O=C(O)/C=C\C(Cl)(Cl)Cl ; what growth inhibition value has been reported?
RESULT: -6.35

QUERY: Suppose we examine the compound CSCCC(NC(=O)CNC(=O)CNC(=O)OCc1ccccc1)C(=O)O (stereo not drawn) (Cbz-Gly-Gly-[ξM]-OH) ; what growth inhibition value has been reported?
RESULT: 96.5

QUERY: Suppose we examine the compound [O-][N+](=Nc1ccccc1)c1ccccc1 ; what growth inhibition value has been reported?
RESULT: 1.2

QUERY: Suppose we examine the compound O=C(O)CCC(=O)Nc1ccc(C(=O)O)c(O)c1 ; what growth inhibition value has been reported?
RESULT: 8.4
